target under test: SARS-CoV-2 S on pseudovirions (Wuhan Hu-1 / IL1/2020, last 18 amino acids removed) (SARS-CoV-2, UniProt P0DTC2 14-1273)
assay notes: cell-based or functional assay
readout: Mean IC80, pSV neutralization

{"columns": ["binder", "Mean IC80, pSV neutralization"],
 "data": [
  ["COV_1086 (antibody, V domains shown) VH: GAQLLESGGALVQPGGSLRLSCAASGFTFNNYGMGWVRQTPGKGLEWVSTINDNGGNTHYADSVKGRFTISRDNSKHTLYLQMNSLRVEDTALYYCAKDVGGPALFEYWGHGTLVTVSS VL: DIVMTQTPLSSSVTLGQPASISCRSSQSLVHSDGNTYLTWLQQRPGQPPKLLIYKISNRLSGVPDRFSGSGAGTDFTLKISRVEAEDVGVYYCMQATHFPRTFGQGTKLEIKR", "≥ 25 µg/ml"]
]}

Next:
Exercise: Which Mean IC80, pSV neutralization value is on record for COV_2143 (antibody, V domains shown, human IgG1) VH: EVQLVESGGGVVQPGRSLRLSCAASGFTFNSFAMLWVRQAPGKGLEWVALFSYDGSNKYYADSVKGRFTISRDNSKNTLYLQMNNLRAVDTAVYYCARASPYDINGYYLHRIAFDIWGQGTMVTVSS VL: QSVLMQPPSVSGAPGQRVTISCTGSSSNIGAGYDVHWYQQLPGTAPKLLMYGNSNRPSGVPDRFSGSKSGTSASLAITGLQAEDEADYYCQSYDSGLSGWVFGGGTKLTVLG ?
Solution: ≥ 25 µg/ml
